Taken from patent EP0608419A1.

EXPERIMENTAL PROTOCOL: Concentration of test compound in eye tissue and blood after continuous subcutaneous administration by implanted mini-pump (EIA)
Type: in vivo, JW (clean) strain female rabbits
EXPERIMENTAL SETUP: sc, 2.5 mg/animal/day; Vitreum; Day 5 of continuous subcutaneous administration (2.5 mg/rabbit/day); n = 6; read-out: Mean concentration in tissue ± S.E.
READOUT TYPE: concentration at 120 h (ng/g)
One number for each entry, in ng/g.

Data point: CNC(=O)OC1CCC2(CO2)C(C2(C)OC2CC=C(C)C)C1OC (stereo not shown) [test compound] ; concentration at 120 h = 1.19
